Tested on: CAMK1D
Conditions: concentration: 1 μM, replicates: in singlicate; n = 1;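 also: KINOMEscan kinase panel screen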
Task for the reader: assign each of the following molecules its reported %Inh.
Response body: numeric value in %, unit text excluded.

Given the molecule CCS(=O)(=O)c1ccc(OC)c(Nc2nccc(-c3c(-c4cccc(NC(=O)c5c(F)cccc5F)c4)nn4ncccc34)n2)c1 and test system CAMK1D, the measured %Inh is 12

Given the molecule NCCCC(NC(=O)c1cc(Br)c(-c2ccnc3[nH]ccc23)s1)c1ccccc1.O=C(O)C(F)(F)F.O=C(O)C(F)(F)F (stereo not shown) and test system CAMK1D, the measured %Inh is 18

Given the molecule O=C(O)C(F)(F)F.O=C(O)C(F)(F)F.O=c1[nH]ccc2nc(N[C@@H]3CCCNC3)nc(Nc3ccc(S(=O)(=O)N4CCOCC4)cc3)c12 and test system CAMK1D, the measured %Inh is 99.1

Given the molecule c1ccc(Oc2ccc(Nc3ccnc4cc(-c5ccc(CNCCN6CCOCC6)o5)ccc34)cc2)nc1 and test system CAMK1D, the measured %Inh is 2

Given the molecule Nc1ncnc2c1nc(-c1ccccc1)n2-c1ccccc1 and test system CAMK1D, the measured %Inh is 8

Given the molecule Cl.c1ccc(-c2ccc3c(Nc4ccc5[nH]ncc5c4)ccnc3c2)nc1 and test system CAMK1D, the measured %Inh is 18

Given the molecule Nc1ncc(-c2ccc3nccc(-c4ccncc4)c3c2)cc1S(=O)(=O)N1CCOCC1 and test system CAMK1D, the measured %Inh is 36

###

Test system: MERTK
Details: concentration: 1 μM, replicates: in singlicate; n = 1
measured.property: %Inh (%)
Response body: numeric value in %, unit text excluded.

For this molecule ( O=C(Nc1n[nH]c2nc(-c3ccc(O)cc3)ccc12)C1CC1 [SB-710363] ), measured %Inh is 8

For this molecule ( COc1cc(Nc2ncc3c(C)nc(-c4cc5ccccc5[nH]4)n3n2)cc(OC)c1OC [GW869516] ), measured %Inh is 56

For this molecule ( Cn1cc(-c2[nH]c3cc(NC(=O)[C@H](N)C4CCCCC4)cc4c3c2C=NNC4=O)cn1 ), measured %Inh is 95.1

For this molecule ( Cc1ccc(S(=O)(=O)Nc2ccc(Nc3nccc(Nc4cccc5[nH]ncc45)n3)cc2)cc1 [GSK581271] ), measured %Inh is 9

###

Task for the reader: assign each of the following compounds its reported %Inh.
Tested on: EPHB2
Settings: concentration: 1 μM, replicates: in singlicate; n = 1
Response body: numeric value in %, unit text excluded.

For this compound ( COC(=O)Nc1nc2ccc(Oc3ccc(NC(=O)Nc4cc(C(F)(F)F)ccc4F)cc3)cc2n1C.Cl ), measured %Inh is 43

For this compound ( COc1cc(Nc2nccc(N3CCC(NC(=O)Nc4cccc(C(C)=O)c4)C3)n2)cc(OC)c1OC (stereo not drawn) ), measured %Inh is 0

For this compound ( NCCCC(NC(=O)c1cc(Br)c(-c2ccnc3[nH]ccc23)s1)c1ccccc1.O=C(O)C(F)(F)F.O=C(O)C(F)(F)F (stereo not drawn) ), measured %Inh is 0

For this compound ( CCn1c(-c2nonc2N)nc2c(C#CC(C)(C)O)nc(OC[C@H](N)c3ccccc3)cc21 ), measured %Inh is 0

For this compound ( Cc1ccc(F)c(C(=O)Nc2cccc(-c3nn4ccccc4c3-c3ccnc(Nc4cccc(F)c4)n3)c2)c1F ), measured %Inh is 0

For this compound ( CNC(=O)c1ccccc1Nc1nc(Nc2ccc(N3CCOCC3)cc2)ncc1Cl.Cl ), measured %Inh is 23

For this compound ( COc1cc(Nc2nccc(-c3c(-c4cccc(NC(=O)c5c(F)cccc5F)c4)nn4ccccc34)n2)cc(OC)c1OC ), measured %Inh is 9

For this compound ( Nc1ncc(-c2ccc3nccc(-c4ccncc4)c3c2)cc1S(=O)(=O)N1CCOCC1 ), measured %Inh is 0

For this compound ( Fc1ccc(-c2ncn(C3CCNCC3)c2-c2ccnc(Oc3ccc(-c4ccccc4)cc3)n2)cc1 ), measured %Inh is 6

For this compound ( COCCOCCOc1cc2ncc3c4ccc(C#N)cc4[nH]c3c2cc1OC ), measured %Inh is 23

For this compound ( COc1cccc(C(=O)Nc2cccc(Oc3ccc4nc(NC(=O)C5CC5)cn4n3)c2)c1 ), measured %Inh is 94.5

For this compound ( CN1CCN(Cc2cccc(-c3ccc4c(Nc5ccc(Oc6ccccc6)cc5)ccnc4c3)c2)CC1 ), measured %Inh is 16

###

Test system: CDK8
Conditions: concentration: 1 μM, replicates: in singlicate; n = 1
# true = %Inh below 20% (exclusive); false = %Inh at/above 20%

**Q:** Take the compound CCc1ccc(-c2ccc3c(c2)-c2c(cnn2C)S(=O)(=O)N3C)cc1 and say whether its %Inh is less than 20%.
**A:** true

**Q:** Take the compound Nc1ncc(-c2cccnc2)c2scc(-c3ccc4c(c3)CCN4C(=O)Cc3ccccc3)c12 [GSK683281] and say whether its %Inh is less than 20%.
**A:** false

**Q:** Take the compound O=C(Nc1ccccc1F)NC1CCN(c2ccnc(Nc3ccc(F)cc3)n2)CC1 [GSK1379800] and say whether its %Inh is less than 20%.
**A:** false

**Q:** Take the compound COc1cc(Nc2nccc(N3CCC(NC(=O)Nc4cccc(C(C)=O)c4)C3)n2)cc(OC)c1OC (centres unmarked) [GSK1379753] and say whether its %Inh is less than 20%.
**A:** false

**Q:** Take the compound Cc1ccc(C(=O)N2CC[C@@H](O)C2)cc1-n1c(C)cc(OCc2ccc(F)cc2F)c(Br)c1=O and say whether its %Inh is less than 20%.
**A:** true

**Q:** Take the compound CCCCc1nn2ncccc2c1-c1ccnc(Nc2ccc(N3CCN(C)CC3)cc2)n1 [GW684941] and say whether its %Inh is less than 20%.
**A:** false

**Q:** Take the compound CN(C)S(=O)(=O)c1cc(-c2ccc3nccc(-c4cccc(S(N)(=O)=O)c4)c3c2)cnc1N [GSK1669921] and say whether its %Inh is less than 20%.
**A:** false

###

Test system: TIE2
Construct: gene TEK
Details: concentration: 1 μM, replicates: in singlicate; n = 1
Task for the reader: assign each of the following molecules its reported %Inh.
Response body: numeric value in %, unit text excluded.

For this molecule ( Nc1n[nH]c2cnc(-c3ccccc3)cc12 ), measured %Inh is 0

For this molecule ( COC(=O)Nc1nc2ccc(Oc3ccc(NC(=O)Nc4cc(C(F)(F)F)ccc4F)cc3)cc2n1C.Cl ), measured %Inh is 97.3

For this molecule ( NCCCC(NC(=O)c1cc(Br)c(-c2ccnc3[nH]ccc23)s1)c1ccccc1.O=C(O)C(F)(F)F.O=C(O)C(F)(F)F (stereo not drawn) ), measured %Inh is 15

For this molecule ( Oc1cc(Nc2ccnc3cc(I)ccc23)ccc1F ), measured %Inh is 0

For this molecule ( O=C(NC1CCN(c2ccnc(Nc3ccc(F)cc3)n2)C1)c1cc2ccccc2s1 (stereo not drawn) ), measured %Inh is 0

For this molecule ( c1ccc(-c2cnc3nccnn23)cc1 ), measured %Inh is 0

###

Task for the reader: assign each of the following compounds its reported %Inh.
Test system: MET
Settings: concentration: 1 μM, replicates: in singlicate; n = 1
Response body: numeric value in %, unit text excluded.

For this compound ( COC(=O)Nc1nc2ccc(Oc3ccc(NC(=O)Nc4cc(C(F)(F)F)ccc4F)cc3)cc2n1C.Cl [GW692089] ), measured %Inh is 62

For this compound ( NCCCC(NC(=O)c1cc(Br)c(-c2ccnc3[nH]ccc23)s1)c1ccccc1.O=C(O)C(F)(F)F.O=C(O)C(F)(F)F (stereo not shown) [GSK1287544] ), measured %Inh is 6

For this compound ( O=C(Nc1cccc(-c2nn3ncccc3c2-c2ccnc(Nc3ccccc3)n2)c1)c1c(F)cccc1F [GSK198271] ), measured %Inh is 43

For this compound ( Cc1occc1-c1ncc(OC[C@@H](N)Cc2c[nH]c3ccccc23)cc1-c1ccc2[nH]nc(C)c2c1.O=C(O)C(F)(F)F [GSK682037] ), measured %Inh is 45

###

Task for the reader: assign each of the following compounds its reported %Inh.
Test system: p38-beta
Construct: gene MAPK11
Conditions: concentration: 1 μM, replicates: in singlicate; n = 1
Response body: numeric value in %, unit text excluded.

For this compound ( CN1CCN(Cc2cccc(-c3ccc4c(Nc5ccc(Oc6ccccc6)cc5)ccnc4c3)c2)CC1 ), measured %Inh is 0

For this compound ( Cl.Cl.NCC(C(=O)Nc1cc(Br)c(-c2ccnc3[nH]ccc23)s1)c1ccccc1 (stereo not drawn) ), measured %Inh is 40

For this compound ( Fc1ccc(-c2ncn(C3CCNCC3)c2-c2ccnc(Oc3ccc(-c4ccccc4)cc3)n2)cc1 ), measured %Inh is 60

###

Task for the reader: assign each of the following molecules its reported %Inh.
System: CSNK1A1
Conditions: concentration: 1 μM, replicates: in singlicate; n = 1
Response body: numeric value in %, unit text excluded.

For this molecule ( O=C(Nc1n[nH]c2nc(-c3ccc(O)cc3)ccc12)C1CC1 ), measured %Inh is 0

For this molecule ( COc1cc(Nc2ncc3c(C)nc(-c4cc5ccccc5[nH]4)n3n2)cc(OC)c1OC ), measured %Inh is 30

For this molecule ( Cn1cc(-c2[nH]c3cc(NC(=O)[C@H](N)C4CCCCC4)cc4c3c2C=NNC4=O)cn1 ), measured %Inh is 24

For this molecule ( CCc1ccc(-c2ccc3c(c2)-c2c(cnn2C)S(=O)(=O)N3C)cc1 ), measured %Inh is 0

For this molecule ( COc1ccc(CNC(=O)NC2CCN(c3ccnc(Nc4ccc(F)cc4)n3)CC2)cc1 ), measured %Inh is 0

For this molecule ( COc1cc(Nc2nccc(-c3c(-c4cccc(NC(=O)c5c(F)cccc5F)c4)nn4ccccc34)n2)cc(OC)c1OC ), measured %Inh is 27

For this molecule ( NCCCC(NC(=O)c1cc(Br)c(-c2ccnc3[nH]ccc23)s1)c1ccccc1.O=C(O)C(F)(F)F.O=C(O)C(F)(F)F (centres unmarked) ), measured %Inh is 90

For this molecule ( COc1cc(Nc2nccc(N3CCC(NC(=O)c4cc5ccccc5s4)C3)n2)cc(OC)c1OC (centres unmarked) ), measured %Inh is 41
